Exercise: state measured IC100, Topo II for each of the molecules provided.
Tested on: calf thymus topoisomerase II
Assay: Inhibition of the enzyme activity of topoisomerase II
Format: biochemical
Settings: concentration to inhibit the enzyme activity of calf thymus topoisomerase II
One number for each entry, in µg/mL.

- O=C(O)c1cn(C2CC2)c2cc(N3CCNCC3)c(F)cc2c1=O [Ciprofloxacin, reference compound]: 500

// next entry
Find the measured IC100, Topo II of CC1CN(c2c(F)c(N)c3c(=O)c(C(=O)O)cn(C4CC4)c3c2F)CC(C)N1 (stereo not shown) [Sparfloxacin, reference compound] and report it.
500
